# System: locomotor activity in mice
# experiment_notes: Inhibition of locomotor activity in mice
# Type: in vivo
# setup_conditions: Mus musculus; mice, IP; read-out: Inhibition of Locomotor Activity in Mice ED50
Counter-ions that a name gives are not always drawn.
// NB: equality with 5 mg/kg counts as false (0); only ED50 strictly below is true (1)

Before answering, review these 3 worked examples.
C1=C(c2c[nH]c3ccccc23)CCC(CCN2CCN(c3ccccn3)CC2)C1 (centres unmarked) [Example 16]: false (0)
c1ccc(N2CCN(CC[C@H]3CC[C@H](c4c[nH]c5ccccc54)CC3)CC2)nc1 [Example 1]: true (1)
c1cnc(N2CCN(CC[C@H]3CC[C@H](c4c[nH]c5ccccc54)CC3)CC2)nc1 [Example 3, hydrochloride]: true (1)

ED50 under 5 mg/kg? Item: c1cnc(N2CCN(CC[C@H]3CC[C@@H](c4c[nH]c5ccccc54)CC3)CC2)nc1 [Example 4, hydrochloride]
false (0)

ED50 under 5 mg/kg? Item: c1ccc(N2CCN(CC[C@H]3CC[C@@H](c4c[nH]c5ccccc54)CC3)CC2)nc1 [Example 2]
true (1)

These measurements were taken from patent US5124332A.
